TESTED TARGET: human recombinant dopamine D2L receptor (Homo sapiens, UniProt P14416)
Sequence (P14416 whole entry): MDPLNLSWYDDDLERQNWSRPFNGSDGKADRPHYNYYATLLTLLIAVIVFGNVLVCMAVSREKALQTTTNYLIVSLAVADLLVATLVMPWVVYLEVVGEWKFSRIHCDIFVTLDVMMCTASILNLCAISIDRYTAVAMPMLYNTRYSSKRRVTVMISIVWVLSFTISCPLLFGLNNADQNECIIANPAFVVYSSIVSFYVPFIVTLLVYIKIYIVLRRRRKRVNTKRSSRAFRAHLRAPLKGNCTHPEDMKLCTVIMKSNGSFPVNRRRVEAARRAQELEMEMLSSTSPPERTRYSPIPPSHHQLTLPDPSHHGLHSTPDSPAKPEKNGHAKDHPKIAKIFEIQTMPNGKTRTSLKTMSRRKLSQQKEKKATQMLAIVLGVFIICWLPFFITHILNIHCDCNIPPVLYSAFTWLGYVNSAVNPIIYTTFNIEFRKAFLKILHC
MEASUREMENT DESCRIPTION: Dopamine D2L radioligand binding assay
TEST CONDITIONS: [3H]Spiperone specific binding, read-out: Percent Inhibition of ligand binding, Dopamine (1 μM ligand conc.) D2L
ASSAY METRIC: inhibition at 1 µM (%)
Only the number, expressed in %, is required.

1. C=C(Cn1c2c(c3cc(C)ccc31)C1CCN(C2)C1)c1ccc(F)cc1 (stereo not drawn) :: 12
2. Cc1ccc2c(c1)c1c(n2CC(=O)N2CCOCC2)CN2CCC1C2 (stereo not drawn) :: 10
3. Cc1ccc2c(c1)c1c(n2CC(=O)c2ccc(Cl)cc2)CN2CCC1C2 (stereo not drawn) :: 0
4. Cc1ccc2c(c1)c1c(n2CC(=O)c2ccc(F)cc2)CN2CCC1C2 (stereo not drawn) :: 1
5. Cc1ccc2c(c1)c1c(n2CC(C)(O)c2ccc(Cl)c(Cl)c2)CN2CCC1C2 (stereo not drawn) :: -2

Problem: What does the data say about its inhibition at 1 µM? Entry: COc1ccc(/C(C)=C/n2c3c(c4cc(C)ccc42)C2CCN(C3)C2)cc1 (stereo not drawn)
Solution: -2

Problem: So what's the measured inhibition at 1 µM for this one? Cc1ccc2c(c1)c1c(n2CCc2ccccn2)CN2CCC1C2 (stereo not drawn)
Solution: -6

Problem: Entry Cc1ccc(/C=C/n2c3c(c4cc(C)ccc42)C2CCN(C3)C2)cc1 (stereo not drawn) : reported inhibition at 1 µM = ?
Solution: 18

Problem: Data request, read-out inhibition at 1 µM, for C/C(=C\n1c2c(c3cc(C)ccc31)C1CCN(C2)C1)c1ccc(F)c(F)c1 (stereo not drawn)
Solution: 0
